test system: HCV replicon of genotype 1b (Con1); test: HCV replicon genotype 1b antiviral activity; type: cell-based; conditions: Hepatitis C virus; replicon genotype 1b (Con1); read-out: HCV GT1b EC50
Can you tell me pEC50 for the items I'm about to list?
When answering, recall that pEC50 equals minus log10 of the concentration in mol/L, and write that number alone.

Measured pEC50 of CCOC(=O)[C@H](C)NP(=O)(OC[C@@]1(N=[N+]=[N-])O[C@@H](n2ccc(=O)[nH]c2=O)[C@H](O)[C@@H]1O)Oc1cccc2ccccc12 (stereo partly drawn) [Compound I-3] : 6.40

Measured pEC50 of [N-]=[N+]=N[C@]1(CO)O[C@@H](n2ccc(=O)[nH]c2=O)[C@H](O)[C@@H]1O [Compound 4AU, 4′-azidouridine] : 3.66

Measured pEC50 of C[C@H](NP(=O)(OC[C@@]1(N=[N+]=[N-])O[C@@H](n2ccc(=O)[nH]c2=O)[C@H](O)[C@@H]1O)Oc1cccc2ccccc12)C(=O)OCc1ccccc1 (stereo partly drawn) [Compound I-1] : 6.48
